Hey, just so you know, these numbers are from ChEMBL document CHEMBL4402536.

Test: Half life of the compound
Assay type: physicochemical
TEST READOUT: half-life

INSERT INTO results (molecule_smiles, result) VALUES
  ('CCc1ccc(C(=O)NC(=O)c2ccccc2O)cc1', '< 10 min');

Now for another entry.
IN: Consider the molecule CCN(CC)c1ccc(C(=O)NC(=O)c2ccccc2O)cc1 and give its measured half-life.
OUT: 33 min

====

I'd be grateful if you could share measured log10(EC50) for these entries.
Test system: Toxoplasma gondii
Assay: Antiparasitic activity against Toxoplasma gondii
Type: functional, organism-based
The figures below represent log10 of EC50, where EC50 is stated in nM.

Some compounds with known log10(EC50) results, for comparison:
INSERT INTO assay_data (compound, test_readout, recorded_number) VALUES
  ('O=C(C[C@H]1NCCC[C@@H]1O)Cn1cnc2c(c1=O)CCCC2', 'log10(EC50)', 2.94),
  ('Cc1cccc(Cc2nn(C(C)(C)C)c3ncnc(N)c23)c1', 'log10(EC50)', 2.04),
  ('O=c1c2ccccc2ncn1C[C@H](O)C[C@H]1NCCC[C@@H]1O', 'log10(EC50)', 3.28),
  ('O=C(CC1NCCCC1O)Cn1cnc2cc(Br)c(Cl)cc2c1=O (stereo unspecified)', 'log10(EC50)', 0.15);

Now for another entry.
IN: Consider the compound O=C1CCCN[C@@H]1CCCn1cnc2ccccc2c1=O and give its measured log10(EC50).
OUT: 3.95

====

System: Toxoplasma gondii
Assay: Antiparasitic activity against Toxoplasma gondii infected in human HFF cells after 7 days by crystal violet assay
Type: functional, organism-based
Details: 168 h
pEC50: −log10 of the molar value.
TEST READOUT: pEC50

IN: Consider the compound C/C1=C\[C@H](C)C[C@H](C)OC(=O)C[C@H](c2ccc(O)cc2)NC(=O)[C@@H](Cc2c(Br)[nH]c3ccccc23)N(C)C(=O)[C@H](C)NC(=O)[C@@H](C)C1 [JASPAMIDE] and give its measured pEC50.
OUT: 6.52 to 7.52

====

Experiment: Therapeutic index, ratio of TD50 in CF-1 mouse to IC50 of Toxoplasma gondii infected in human HFF cells
Type: toxicity, cell-based
Conditions: read-out: TI
TEST READOUT: selectivity ratio
Numbers only.

IN: Consider the compound Cc1[nH]c2ccccc2c(=O)c1-c1ccc(Oc2ccc(OC(F)(F)F)cc2)cc1 and give its measured selectivity ratio.
OUT: 93500
